Molecular target: hNav1.7 (Homo sapiens, UniProt Q15858)
Sequence (Q15858 1-1977 isoform Q15858-3): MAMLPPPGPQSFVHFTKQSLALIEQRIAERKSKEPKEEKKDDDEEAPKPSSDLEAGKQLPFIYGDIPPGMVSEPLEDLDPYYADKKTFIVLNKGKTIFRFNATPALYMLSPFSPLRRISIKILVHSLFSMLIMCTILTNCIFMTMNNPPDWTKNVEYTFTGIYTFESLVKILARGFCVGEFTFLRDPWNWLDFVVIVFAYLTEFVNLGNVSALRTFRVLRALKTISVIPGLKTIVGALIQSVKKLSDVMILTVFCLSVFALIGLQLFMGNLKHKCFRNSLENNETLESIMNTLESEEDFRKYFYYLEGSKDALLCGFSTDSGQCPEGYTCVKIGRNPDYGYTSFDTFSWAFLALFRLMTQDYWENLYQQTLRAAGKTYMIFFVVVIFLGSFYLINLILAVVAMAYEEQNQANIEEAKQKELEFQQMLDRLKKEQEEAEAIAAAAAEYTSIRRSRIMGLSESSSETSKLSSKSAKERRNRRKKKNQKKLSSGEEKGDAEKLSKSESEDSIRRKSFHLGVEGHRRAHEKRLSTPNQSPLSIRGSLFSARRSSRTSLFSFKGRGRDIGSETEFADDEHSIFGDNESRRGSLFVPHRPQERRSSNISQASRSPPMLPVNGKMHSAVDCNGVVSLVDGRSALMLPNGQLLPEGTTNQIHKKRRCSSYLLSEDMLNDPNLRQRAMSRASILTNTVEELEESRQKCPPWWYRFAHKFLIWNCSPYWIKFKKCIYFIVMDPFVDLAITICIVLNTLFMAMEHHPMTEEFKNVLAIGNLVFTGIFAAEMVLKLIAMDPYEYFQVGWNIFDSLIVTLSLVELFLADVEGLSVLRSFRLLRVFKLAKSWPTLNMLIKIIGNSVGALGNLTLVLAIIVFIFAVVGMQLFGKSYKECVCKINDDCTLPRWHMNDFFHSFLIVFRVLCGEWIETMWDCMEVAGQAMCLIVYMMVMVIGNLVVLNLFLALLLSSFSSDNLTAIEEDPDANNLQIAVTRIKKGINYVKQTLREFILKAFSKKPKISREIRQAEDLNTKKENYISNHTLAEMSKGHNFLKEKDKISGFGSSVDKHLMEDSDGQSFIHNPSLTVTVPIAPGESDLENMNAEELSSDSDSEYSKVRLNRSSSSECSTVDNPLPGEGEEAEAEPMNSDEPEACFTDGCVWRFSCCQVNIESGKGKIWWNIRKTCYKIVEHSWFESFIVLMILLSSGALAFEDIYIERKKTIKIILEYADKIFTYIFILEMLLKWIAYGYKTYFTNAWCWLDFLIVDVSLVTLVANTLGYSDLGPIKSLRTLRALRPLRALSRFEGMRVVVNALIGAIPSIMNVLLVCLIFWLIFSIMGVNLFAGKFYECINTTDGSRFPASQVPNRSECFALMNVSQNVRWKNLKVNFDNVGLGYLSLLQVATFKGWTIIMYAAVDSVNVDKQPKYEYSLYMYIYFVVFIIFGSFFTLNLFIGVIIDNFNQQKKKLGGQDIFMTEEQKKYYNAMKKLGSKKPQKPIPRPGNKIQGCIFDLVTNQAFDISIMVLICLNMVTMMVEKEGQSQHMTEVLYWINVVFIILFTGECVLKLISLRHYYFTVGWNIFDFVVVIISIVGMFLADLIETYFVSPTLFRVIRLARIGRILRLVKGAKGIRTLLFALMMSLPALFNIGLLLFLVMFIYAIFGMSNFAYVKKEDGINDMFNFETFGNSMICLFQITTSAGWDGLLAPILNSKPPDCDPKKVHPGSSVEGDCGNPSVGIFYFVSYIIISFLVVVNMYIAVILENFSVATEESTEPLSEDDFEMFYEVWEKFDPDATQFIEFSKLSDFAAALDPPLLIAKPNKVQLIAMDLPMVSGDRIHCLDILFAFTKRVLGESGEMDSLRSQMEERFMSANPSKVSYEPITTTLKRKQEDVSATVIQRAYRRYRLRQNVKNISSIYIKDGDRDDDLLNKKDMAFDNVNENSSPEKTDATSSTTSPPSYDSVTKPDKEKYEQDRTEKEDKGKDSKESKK
Experiment: Electrophysiology (EP) whole-cell patch clamp assay in hNav1.7 expressing HEK-293 cells
Type: cell-based
Settings: Table 6; resting block dissociation constant; read-out: Nav1.7 Activity (μM) EP assay Kr
value type: Kd (µM)
State the answer as a number, implicitly in µM.

Previously resolved entries follow.
> print(dat)
                                   molecule  value.type  recorded.result
1  NC(=O)c1cc(N[C@H]2CCNC2=O)nc(-c2ccc(Oc3cccc(F)n3)cc2)n1 [compound 134]          Kd             22.1
2  C[C@H](Oc1cc(C(N)=O)nc(-c2ccc(Oc3ccc(C(F)(F)F)cn3)cc2)n1)C(N)=O [compound 146]          Kd             18.3

Tell me measured Kd for NC(=O)c1cc(N[C@H]2CCNC2=O)nc(N2C3CCC2CC(Oc2ccc(C(F)(F)F)cn2)C3)n1 (stereo partly drawn) [compound 140] please.
46.2
